- measurement_description: Stability test (2): salt crystalline forms at high temperature, high humidity and light, detection by HPLC and XRPD
- Assay type: physicochemical
- test_parameters: HPLC; light (RT, white light 6980 lux, UV 282 μW/cm2), 10 days
metric_name: total impurities (%)

Examples with their reported total impurities (%) follow.
• O=C(NS(=O)(=O)c1ccc(NC[C@H]2COCCO2)c([N+](=O)[O-])c1)c1ccc(N2CCN(CC3=C(c4ccc(Cl)cc4)CC4(CCC4)CC3)CC2)cc1Oc1cnc2[nH]ccc2c1.O=S(=O)(O)c1ccccc1 [XXVII] = 1.28
• CS(=O)(=O)O.O=C(NS(=O)(=O)c1ccc(NC[C@H]2COCCO2)c([N+](=O)[O-])c1)c1ccc(N2CCN(CC3=C(c4ccc(Cl)cc4)CC4(CCC4)CC3)CC2)cc1Oc1cnc2[nH]ccc2c1 [XXXIII] = 1.09
• O=C(NS(=O)(=O)c1ccc(NC[C@H]2COCCO2)c([N+](=O)[O-])c1)c1ccc(N2CCN(CC3=C(c4ccc(Cl)cc4)CC4(CCC4)CC3)CC2)cc1Oc1cnc2[nH]ccc2c1.O=C(O)/C=C\C(=O)O [XXIV] = 0.72
• O=C(NS(=O)(=O)c1ccc(NC[C@H]2COCCO2)c([N+](=O)[O-])c1)c1ccc(N2CCN(CC3=C(c4ccc(Cl)cc4)CC4(CCC4)CC3)CC2)cc1Oc1cnc2[nH]ccc2c1.O=C(O)CC(O)(CC(=O)O)C(=O)O [XXXIX] = 1.02

(a) O=C(NS(=O)(=O)c1ccc(NC[C@H]2COCCO2)c([N+](=O)[O-])c1)c1ccc(N2CCN(CC3=C(c4ccc(Cl)cc4)CC4(CCC4)CC3)CC2)cc1Oc1cnc2[nH]ccc2c1.O=S(=O)(O)O [XXX]
(b) Cc1ccc(S(=O)(=O)O)cc1.O=C(NS(=O)(=O)c1ccc(NC[C@H]2COCCO2)c([N+](=O)[O-])c1)c1ccc(N2CCN(CC3=C(c4ccc(Cl)cc4)CC4(CCC4)CC3)CC2)cc1Oc1cnc2[nH]ccc2c1 [XXIX]
Inquiry: Lab note: record which item had the higher total impurities (%), a or b . Answer by quoting the chosen item's label.
Reply text: a

* * *

- measurement_description: Evaluation of hygroscopicity by Dynamic Moisture Sorption Analyzer (DVS), with XRPD before and after DVS
- Format: physicochemical
- test_parameters: DVS, 80% RH
metric_name: weight increase by hygroscopy (80% RH) (%)

Examples with their reported weight increase by hygroscopy (80% RH) follow.
• Cc1ccc(S(=O)(=O)O)cc1.O=C(NS(=O)(=O)c1ccc(NC[C@H]2COCCO2)c([N+](=O)[O-])c1)c1ccc(N2CCN(CC3=C(c4ccc(Cl)cc4)CC4(CCC4)CC3)CC2)cc1Oc1cnc2[nH]ccc2c1 = 0.948
• O=C(NS(=O)(=O)c1ccc(NC[C@H]2COCCO2)c([N+](=O)[O-])c1)c1ccc(N2CCN(CC3=C(c4ccc(Cl)cc4)CC4(CCC4)CC3)CC2)cc1Oc1cnc2[nH]ccc2c1.O=C(O)/C=C\C(=O)O = 1.246
• O=C(NS(=O)(=O)c1ccc(NC[C@H]2COCCO2)c([N+](=O)[O-])c1)c1ccc(N2CCN(CC3=C(c4ccc(Cl)cc4)CC4(CCC4)CC3)CC2)cc1Oc1cnc2[nH]ccc2c1.O=C(O)CC(O)(CC(=O)O)C(=O)O = 0.37
• O=C(NS(=O)(=O)c1ccc(NC[C@H]2COCCO2)c([N+](=O)[O-])c1)c1ccc(N2CCN(CC3=C(c4ccc(Cl)cc4)CC4(CCC4)CC3)CC2)cc1Oc1cnc2[nH]ccc2c1.O=S(=O)(O)c1ccccc1 = 3.32

(P) CS(=O)(=O)O.O=C(NS(=O)(=O)c1ccc(NC[C@H]2COCCO2)c([N+](=O)[O-])c1)c1ccc(N2CCN(CC3=C(c4ccc(Cl)cc4)CC4(CCC4)CC3)CC2)cc1Oc1cnc2[nH]ccc2c1
(Q) O=C(NS(=O)(=O)c1ccc(NC[C@H]2COCCO2)c([N+](=O)[O-])c1)c1ccc(N2CCN(CC3=C(c4ccc(Cl)cc4)CC4(CCC4)CC3)CC2)cc1Oc1cnc2[nH]ccc2c1.O=S(=O)(O)O
Inquiry: Lab note: record which item had the higher weight increase by hygroscopy (80% RH), P or Q . Answer by quoting the chosen item's label.
Reply text: P

* * *

- measurement_description: Stability test (2): salt crystalline forms at high temperature, high humidity and light, detection by HPLC and XRPD
- Assay type: physicochemical
- test_parameters: HPLC; RT/75% RH (open), 10 days
metric_name: total impurities (%)

Examples with their reported total impurities (%) follow.
- O=C(NS(=O)(=O)c1ccc(NC[C@H]2COCCO2)c([N+](=O)[O-])c1)c1ccc(N2CCN(CC3=C(c4ccc(Cl)cc4)CC4(CCC4)CC3)CC2)cc1Oc1cnc2[nH]ccc2c1.O=C(O)/C=C\C(=O)O: 0.50
- CS(=O)(=O)O.O=C(NS(=O)(=O)c1ccc(NC[C@H]2COCCO2)c([N+](=O)[O-])c1)c1ccc(N2CCN(CC3=C(c4ccc(Cl)cc4)CC4(CCC4)CC3)CC2)cc1Oc1cnc2[nH]ccc2c1: 0.71
- O=C(NS(=O)(=O)c1ccc(NC[C@H]2COCCO2)c([N+](=O)[O-])c1)c1ccc(N2CCN(CC3=C(c4ccc(Cl)cc4)CC4(CCC4)CC3)CC2)cc1Oc1cnc2[nH]ccc2c1.O=C(O)CC(O)(CC(=O)O)C(=O)O: 0.82
- O=C(NS(=O)(=O)c1ccc(NC[C@H]2COCCO2)c([N+](=O)[O-])c1)c1ccc(N2CCN(CC3=C(c4ccc(Cl)cc4)CC4(CCC4)CC3)CC2)cc1Oc1cnc2[nH]ccc2c1.O=S(=O)(O)O: 0.86

(I) Cc1ccc(S(=O)(=O)O)cc1.O=C(NS(=O)(=O)c1ccc(NC[C@H]2COCCO2)c([N+](=O)[O-])c1)c1ccc(N2CCN(CC3=C(c4ccc(Cl)cc4)CC4(CCC4)CC3)CC2)cc1Oc1cnc2[nH]ccc2c1
(II) O=C(NS(=O)(=O)c1ccc(NC[C@H]2COCCO2)c([N+](=O)[O-])c1)c1ccc(N2CCN(CC3=C(c4ccc(Cl)cc4)CC4(CCC4)CC3)CC2)cc1Oc1cnc2[nH]ccc2c1.O=S(=O)(O)c1ccccc1
Inquiry: Lab note: record which item had the higher total impurities (%), I or II . Answer by quoting the chosen item's label.
Reply text: II

* * *

- measurement_description: Stability test (2): salt crystalline forms at high temperature, high humidity and light, detection by HPLC and XRPD
- Format: physicochemical
- test_parameters: HPLC; RT/75% RH (open), 30 days
metric_name: total impurities (%)

* CS(=O)(=O)O.O=C(NS(=O)(=O)c1ccc(NC[C@H]2COCCO2)c([N+](=O)[O-])c1)c1ccc(N2CCN(CC3=C(c4ccc(Cl)cc4)CC4(CCC4)CC3)CC2)cc1Oc1cnc2[nH]ccc2c1 | 0.70

(1) O=C(NS(=O)(=O)c1ccc(NC[C@H]2COCCO2)c([N+](=O)[O-])c1)c1ccc(N2CCN(CC3=C(c4ccc(Cl)cc4)CC4(CCC4)CC3)CC2)cc1Oc1cnc2[nH]ccc2c1.O=S(=O)(O)c1ccccc1
(2) O=C(NS(=O)(=O)c1ccc(NC[C@H]2COCCO2)c([N+](=O)[O-])c1)c1ccc(N2CCN(CC3=C(c4ccc(Cl)cc4)CC4(CCC4)CC3)CC2)cc1Oc1cnc2[nH]ccc2c1.O=C(O)CC(O)(CC(=O)O)C(=O)O
Inquiry: Lab note: record which item had the higher total impurities (%), 1 or 2 . Answer by quoting the chosen item's label.
Reply text: 1
(1: 1.27%, 2: 0.81%)

* * *

- measurement_description: Stability test (2): salt crystalline forms at high temperature, high humidity and light, detection by HPLC and XRPD
- Type: physicochemical
- test_parameters: HPLC; 60° C. (open), 30 days
metric_name: total impurities (%)

- O=C(NS(=O)(=O)c1ccc(NC[C@H]2COCCO2)c([N+](=O)[O-])c1)c1ccc(N2CCN(CC3=C(c4ccc(Cl)cc4)CC4(CCC4)CC3)CC2)cc1Oc1cnc2[nH]ccc2c1.O=S(=O)(O)c1ccccc1: 1.33
- Cc1ccc(S(=O)(=O)O)cc1.O=C(NS(=O)(=O)c1ccc(NC[C@H]2COCCO2)c([N+](=O)[O-])c1)c1ccc(N2CCN(CC3=C(c4ccc(Cl)cc4)CC4(CCC4)CC3)CC2)cc1Oc1cnc2[nH]ccc2c1: 0.66
- O=C(NS(=O)(=O)c1ccc(NC[C@H]2COCCO2)c([N+](=O)[O-])c1)c1ccc(N2CCN(CC3=C(c4ccc(Cl)cc4)CC4(CCC4)CC3)CC2)cc1Oc1cnc2[nH]ccc2c1.O=C(O)CC(O)(CC(=O)O)C(=O)O: 0.86
- O=C(NS(=O)(=O)c1ccc(NC[C@H]2COCCO2)c([N+](=O)[O-])c1)c1ccc(N2CCN(CC3=C(c4ccc(Cl)cc4)CC4(CCC4)CC3)CC2)cc1Oc1cnc2[nH]ccc2c1.O=S(=O)(O)O: 0.83

(1) O=C(NS(=O)(=O)c1ccc(NC[C@H]2COCCO2)c([N+](=O)[O-])c1)c1ccc(N2CCN(CC3=C(c4ccc(Cl)cc4)CC4(CCC4)CC3)CC2)cc1Oc1cnc2[nH]ccc2c1.O=C(O)/C=C\C(=O)O
(2) CS(=O)(=O)O.O=C(NS(=O)(=O)c1ccc(NC[C@H]2COCCO2)c([N+](=O)[O-])c1)c1ccc(N2CCN(CC3=C(c4ccc(Cl)cc4)CC4(CCC4)CC3)CC2)cc1Oc1cnc2[nH]ccc2c1
Inquiry: Hi! Which is lower in terms of total impurities (%), the first one 1 or the second one 2 ? Answer by quoting the chosen item's label.
Reply text: 1
